Molecular target: ER-LBD 421V/428A (Homo sapiens, UniProt P03372, L428A/M421V)
Sequence (P03372 311-547 M421V/L428A): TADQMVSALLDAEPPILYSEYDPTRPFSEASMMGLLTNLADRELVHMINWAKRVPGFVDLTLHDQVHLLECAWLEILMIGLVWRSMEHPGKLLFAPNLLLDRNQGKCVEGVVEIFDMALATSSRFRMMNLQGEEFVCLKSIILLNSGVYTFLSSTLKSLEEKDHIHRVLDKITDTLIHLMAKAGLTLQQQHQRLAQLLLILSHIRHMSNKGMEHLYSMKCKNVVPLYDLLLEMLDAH
Experiment: ER-LBD 421V/428A transactivation, cotransfection luciferase reporter assay in HeLa cells
Details: p6x2C7Luc reporter, 0.003 to 1000 nM, mean of two or more experiments, read-out: EC50 ± STDEV
experimental.readout: pEC50
Reminder that pEC50 is minus the log10 of a molar concentration.

Tell me pEC50 reported for COC(=O)NC/C(=C(\c1ccc(O)cc1)c1ccc(OCCN(C)C)cc1)c1ccccc1
7.93

We now examine a further compound.
Tell me pEC50 reported for COC(=O)NC/C(=C(/c1ccc(O)cc1)c1ccc(OCCN(C)C)cc1)c1ccccc1
8.31

Entry source: patent US20030143559A1
